assay: Cytotoxicity against human THP-1 cells assessed as cell growth inhibition; type: toxicity, cell-based
Examples of molecules with documented CC50 follow.

Solved cases below.
{"GIVEN SMILES": "COc1ccc(-c2cnc(NC(=O)c3ccccc3[N+](=O)[O-])n2C)cc1", "OBSERVED VALUE": "> 50 µM"}
{"GIVEN SMILES": "Cc1ccc(-c2cnc(NC(=O)c3ccc(F)cc3)n2C)cc1", "OBSERVED VALUE": "60 µM"}
{"GIVEN SMILES": "COc1ccc(-c2cnc(NC(=O)Cc3ccccc3)n2C)cc1", "OBSERVED VALUE": "> 100 µM"}
{"GIVEN SMILES": "COc1ccc(-c2cnc(NC(=O)C3CCNCC3)n2C)cc1", "OBSERVED VALUE": "> 100 µM"}
{"GIVEN SMILES": "COc1ccc(-c2cnc(NC(=O)c3ccc(O)cc3)n2C)cc1", "OBSERVED VALUE": "> 100 µM"}
{"GIVEN SMILES": "COc1ccccc1-c1cnc(NC(=O)c2ncc[nH]2)n1C", "OBSERVED VALUE": "> 50 µM"}
{"GIVEN SMILES": "Cn1c(-c2ccccc2Cl)cnc1NC(=O)c1ncc[nH]1", "OBSERVED VALUE": "> 50 µM"}
{"GIVEN SMILES": "Cn1c(-c2cccc([N+](=O)[O-])c2)cnc1NC(=O)c1ccc(F)cc1", "OBSERVED VALUE": "> 50 µM"}

response.value for COc1ccc(-c2cnc(NC(=O)c3ccno3)n2C)cc1 (field: CC50) = > 100 µM

response.value for COc1ccc(-c2cnc(NC(=O)c3ccccc3O)n2C)cc1 (field: CC50) = > 100 µM

response.value for COc1ccc2nc(NC(=O)c3ccc(F)cc3)n(C)c2c1 (field: CC50) = > 100 µM

response.value for Cn1c(-c2ccccc2)cnc1NC(=O)c1ncc[nH]1 (field: CC50) = > 100 µM

====

Examples of compounds with documented half-life follow.
test: Metabolic stability in mouse liver microsomes assessed as half life; type: ADME, Microsome
Give the number; min is assumed, so skip it.

Solved cases below.
{"GIVEN SMILES": "COc1ccc(-c2cnc(NC(=O)c3ccc(F)cc3)n2C)cc1", "half-life, min": 4}
{"GIVEN SMILES": "COc1ccc(-c2cnc(NC(=O)c3ncc[nH]3)n2C)cc1", "half-life, min": 3}
{"GIVEN SMILES": "Cn1c(-c2ccc(Cl)cc2)cnc1NC(=O)c1ncc[nH]1", "half-life, min": 43}

response.value for Cn1c(-c2cccc(Cl)c2)cnc1NC(=O)c1ncc[nH]1 (field: half-life) = 82

====

assay: Selectivity index, ratio of CC50 for cytotoxicity against human THP-1 cells to IC50 for antileishmanial activity against Leishmania donovani infected in human THP-1 cells; assay type: toxicity, cell-based; details: read-out: Ratio CC50/IC50
MEASURED ENDPOINT: selectivity ratio

{"GIVEN SMILES": "Cc1ccccc1C(=O)Nc1ncc(-c2ccccc2)n1C", "MEASURED ENDPOINT": "selectivity ratio", "OBSERVED VALUE": "> 1.8"}
{"GIVEN SMILES": "COc1ccc(-c2cnc(NC(=O)C3CCCC3)n2C)cc1", "MEASURED ENDPOINT": "selectivity ratio", "OBSERVED VALUE": "> 1.2"}
{"GIVEN SMILES": "Cn1c(-c2ccc(Cl)cc2)cnc1NC(=O)c1ncc[nH]1", "MEASURED ENDPOINT": "selectivity ratio", "OBSERVED VALUE": 100}

response.value for COc1ccc(-c2cnc(NC(=O)c3ccc(F)cc3)n2C)cc1 (field: selectivity ratio) = > 8.3

response.value for Cc1cccc(-c2cnc(NC(=O)c3ccc(F)cc3)n2C)c1 (field: selectivity ratio) = > 1.3

response.value for COc1cccc(-c2cnc(NC(=O)c3ncc[nH]3)n2C)c1 (field: selectivity ratio) = > 12

response.value for Cn1c(-c2ccccc2)cnc1NC(=O)c1ccccc1Cl (field: selectivity ratio) = > 10

response.value for COc1ccc(-c2cnc(NC(=O)c3ccccc3[N+](=O)[O-])n2C)cc1 (field: selectivity ratio) = > 1

response.value for Cn1c(-c2ccc(C#N)cc2)cnc1NC(=O)c1ccc(F)cc1 (field: selectivity ratio) = > 1

response.value for Cc1ccc(C(=O)Nc2ncc(-c3ccccc3)n2C)cc1 (field: selectivity ratio) = > 20

response.value for COc1ccc(-c2cnc(NC(=O)c3ccc(Br)cc3)n2C)cc1 (field: selectivity ratio) = > 1

response.value for Cn1c(-c2ccccc2)cnc1NC(=O)c1ccc(F)cc1 (field: selectivity ratio) = > 2.8

====

assay: Selectivity index, ratio of CC50 for cytotoxicity against human THP-1 cells to IC50 for antileishmanial activity against Leishmania donovani infected in human THP-1 cells; type: toxicity, cell-based; conditions: read-out: Ratio CC50/IC50
MEASURED ENDPOINT: selectivity ratio

Solved cases below.
{"GIVEN SMILES": "COc1ccc(-c2cnc(NC(=O)C3CCNCC3)n2C)cc1", "selectivity ratio": "> 1"}
{"GIVEN SMILES": "Cn1c(-c2ccc(Cl)cc2)cnc1NC(=O)c1ccc(F)cc1", "selectivity ratio": 7.6}
{"GIVEN SMILES": "Cn1c(-c2ccccc2)cnc1NC(=O)c1ccccc1", "selectivity ratio": "> 22"}
{"GIVEN SMILES": "COc1ccc(-c2cnc3nc(-c4ccc(F)cc4)[nH]c3c2)cc1", "selectivity ratio": "> 1"}
{"GIVEN SMILES": "COc1ccc(-c2cnc(NC(=O)c3cccc(C)c3)n2C)cc1", "selectivity ratio": "> 1"}

response.value for Cn1c(-c2ccccc2)cnc1NC(=O)c1ccc(Cl)cc1 (field: selectivity ratio) = > 8.3

response.value for COc1ccc(-c2cnc(NC(=O)c3cccc(C#N)c3)n2C)cc1 (field: selectivity ratio) = > 1

response.value for COc1ccc(-c2cnc(NC(=O)c3cnco3)n2C)cc1 (field: selectivity ratio) = > 1

response.value for O=C(Nc1ncc(-c2ccccc2)o1)c1ccc(Cl)cc1 (field: selectivity ratio) = 30

response.value for COc1ccc(-c2cnc(NC(=O)c3cccc(O)c3)n2C)cc1 (field: selectivity ratio) = > 1.9

response.value for Cn1c(-c2cccc(Cl)c2)cnc1NC(=O)c1ncc[nH]1 (field: selectivity ratio) = 74

response.value for COc1ccc(-c2cnc(NC(=O)CCc3ccccc3)n2C)cc1 (field: selectivity ratio) = > 4.5

response.value for Cn1c(-c2ccc(Br)cc2)cnc1NC(=O)c1ccc(F)cc1 (field: selectivity ratio) = 6.5

response.value for Cn1c(-c2ccccc2)cnc1NC(=O)c1ncc[nH]1 (field: selectivity ratio) = > 16

response.value for COc1ccc(-c2cnc(NC(=O)c3ccco3)n2C)cc1 (field: selectivity ratio) = > 4.3

response.value for Cc1ccc(C(=O)Nc2ncc(-c3ccccc3)o2)cc1 (field: selectivity ratio) = 19

====

experiment: Selectivity index, ratio of CC50 for cytotoxicity against human THP-1 cells to IC50 for antileishmanial activity against Leishmania donovani infected in human THP-1 cells; assay type: toxicity, cell-based; settings: read-out: Ratio CC50/IC50
MEASURED ENDPOINT: selectivity ratio

{"GIVEN SMILES": "Cn1c(-c2ccc(C#N)cc2)cnc1NC(=O)c1ncc[nH]1", "OBSERVED VALUE": "> 7.1"}

response.value for COc1ccc(-c2cnc(NC(=O)Cc3ccccc3)n2C)cc1 (field: selectivity ratio) = > 4

response.value for CCCC(=O)Nc1ncc(-c2ccc(OC)cc2)n1C (field: selectivity ratio) = > 1

response.value for CCn1c(-c2ccc(OC)cc2)cnc1NC(=O)c1ccc(F)cc1 (field: selectivity ratio) = > 2.6

response.value for COc1ccc(-c2cnc(NC(=O)c3ccc(F)cc3)[nH]2)cc1 (field: selectivity ratio) = > 8.3

response.value for COc1ccc(-c2cnc(NC(=O)c3ccccc3C#N)n2C)cc1 (field: selectivity ratio) = > 7.1

response.value for Cn1c(-c2cccc(C#N)c2)cnc1NC(=O)c1ncc[nH]1 (field: selectivity ratio) = > 1

====

assay: Selectivity index, ratio of CC50 for cytotoxicity against human THP-1 cells to IC50 for antileishmanial activity against Leishmania donovani infected in human THP-1 cells; assay type: toxicity, cell-based; conditions: read-out: Ratio CC50/IC50
MEASURED ENDPOINT: selectivity ratio

{"GIVEN SMILES": "COc1ccc(-c2cnc(NC(=O)c3cccc(OC)c3)n2C)cc1", "selectivity ratio": "> 1"}
{"GIVEN SMILES": "COc1ccc(-c2cnc(NC(=O)c3cccnc3)n2C)cc1", "selectivity ratio": "> 1"}

response.value for COc1ccc(-c2cnc(NC(C)=O)n2C)cc1 (field: selectivity ratio) = > 1

response.value for Cn1c(-c2ccccc2Br)cnc1NC(=O)c1ccc(F)cc1 (field: selectivity ratio) = > 1

response.value for COc1ccc(-c2cnc(NC(=O)c3ccccc3C)n2C)cc1 (field: selectivity ratio) = > 1.5

response.value for COc1ccc(-c2ccnc(NC(=O)c3ccc(F)cc3)c2)cc1 (field: selectivity ratio) = > 1

response.value for COc1ccccc1-c1cnc(NC(=O)c2ncc[nH]2)n1C (field: selectivity ratio) = > 1

response.value for Cn1c(-c2ccccc2Cl)cnc1NC(=O)c1ncc[nH]1 (field: selectivity ratio) = > 9.6
